Tested on: NCI-H23 (human lung cancer)
Assay: In vitro cytotoxicity, SRB assay, NCI-H23
Assay type: cell-based
Details: Homo sapiens, NCI-H23; 72 h with compound, SRB; n/a = non-active compound; read-out: NCI-H23 IC50
This section presents molecules with their documented IC50 values.
Kindly answer with a numeric value in µM, unit omitted.

# molecule, assayed_system, IC50 (µM)
records = [
    ("CC[C@@H](C(=O)[C@@H](C)[C@@H](O)[C@H](C)[C@@H]1O[C@@H]([C@@H](CC)C(=O)O)CC[C@@H]1C)[C@H]1O[C@]2(C=C[C@@H](O)[C@]3(CC[C@@](C)([C@H]4CC[C@](O)(CC)[C@H](C)O4)O3)O2)[C@H](C)C[C@@H]1C [FLC-00001 (SAL), Salinomycin]", "NCI-H23 (human lung cancer)", 0.356),
]

Exam item: IC50 for CCCCCCCNC(=O)N[C@@H]1C=C[C@]2(O[C@H]([C@@H](CC)C(=O)[C@@H](C)[C@@H](O)[C@H](C)[C@@H]3O[C@@H]([C@@H](CC)C(=O)O)CC[C@@H]3C)[C@@H](C)C[C@H]2C)O[C@@]12CC[C@@](C)([C@H]1CC[C@](O)(CC)[C@H](C)O1)O2 ?
Marked response: 0.101
